assay: Percentage of solvent or water in crystal form; format: physicochemical
readout name: Percentage of solvent or water (%)

For orientation, consider the following solved cases.
# compound, Percentage of solvent or water / %
data = [
    ("COc1cc2c(cc1OC)CN1CCc3cc4c(cc3[C@@H]1C2)OCO4 [Form A]", 0.0),
    ("COc1cc2c(cc1OC)CN1CCc3cc4c(cc3C1C2)OCO4 (single isomer, unassigned) [Form C]", 4.4),
]

I: COc1cc2c(cc1OC)CN1CCc3cc4c(cc3C1C2)OCO4 (single isomer, unassigned) [Form B]
II: COc1cc2c(cc1OC)CN1CCc3cc4c(cc3C1C2)OCO4 (single isomer, unassigned) [Form D]
Challenge: API: POST /compare with I and II ; response names the item with higher Percentage of solvent or water. Give the chosen item's label as your response.
Response given: I
(I: 10.8%, II: 0.0%)
